Listed molecules paired with reported MIC
- Test system: Staphylococcus aureus
- Test Details: Antibacterial activity against methicillin-resistant Staphylococcus aureus SR-3637 clinical isolate after 20 hrs by two fold microdilution broth method
- Assay type: functional
- Stated Conditions: SR3637, 20 h
Measured Quantity: MIC

1. CCCCCCCCCCCCNC(=O)[C@@H](N)[C@H](O[C@@H]1O[C@H](CN)[C@@H](O)[C@H]1O)[C@H]1O[C@@H](n2ccc(=O)[nH]c2=O)[C@H](O)[C@@H]1O.O=C(O)C(F)(F)F = 64 mg/L
2. CCCCCCCCCCCCCCCCNC(=O)[C@@H]1[C@@H]([C@H]2O[C@@H](n3ccc(=O)[nH]c3=O)[C@H](O)[C@@H]2O)O[C@H](CCN)N1C(C)=O.Cl = 16 mg/L
3. CCCCCCCCCCCCCCCC(=O)N1[C@H](C(=O)O)[C@@H]([C@H]2O[C@@H](n3ccc(=O)[nH]c3=O)[C@H](O)[C@@H]2O)O[C@@H]1CN = > 64 mg/L
4. CCCCCCCCc1ccc(NC(=O)N[C@H](C(=O)O)[C@H](O[C@@H]2O[C@H](CN)[C@@H](O)[C@H]2O)[C@@H]2O[C@@H](n3ccc(=O)[nH]c3=O)[C@H](O)[C@@H]2O)cc1.O=C(O)C(F)(F)F = > 64 mg/L
5. CCCCCCCCCCCCCCCC(=O)N1[C@H](C(=O)OC(C)(C)C)[C@@H]([C@H]2O[C@@H](n3ccc(=O)[nH]c3=O)[C@H](O)[C@@H]2O)O[C@@H]1CN = 16 mg/L
